B1: Caulobacter ParB omega fusion; a variant is named by its letters at X, in order, B8GW30 (parent)
chain: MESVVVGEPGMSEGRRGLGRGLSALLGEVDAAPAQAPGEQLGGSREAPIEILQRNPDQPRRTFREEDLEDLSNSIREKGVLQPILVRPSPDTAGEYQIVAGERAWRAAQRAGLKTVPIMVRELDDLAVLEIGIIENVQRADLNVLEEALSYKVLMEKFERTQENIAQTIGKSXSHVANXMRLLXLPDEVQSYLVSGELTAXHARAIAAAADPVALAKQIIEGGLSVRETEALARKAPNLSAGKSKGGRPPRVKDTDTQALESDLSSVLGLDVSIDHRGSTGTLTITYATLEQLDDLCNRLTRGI

- Variants of: B1
- assay_summary: one-hybrid fitness for binding parS DNA (scaled: cognate 1, non-cognate 0); higher = stronger binding
- condition: with parS DNA site
In all, about 81,000 sequences were measured (“one-hybrid fitness for binding parS DNA”: median about -0.17, highest 2% from about 0.51 on). Many of the other results were omitted from the sample, so the highest values are more common in it than they were.
Measured one-hybrid fitness for binding parS DNA accompanies every entry in the list below.

Before answering, review these 5 worked examples.
NFIG | ≤ 0.2
RNHN | 0.346
RKEG | 0.949
RKCM | 0.286
LALR | ≤ 0.2

Then there is this variant:
## Input Field request: one-hybrid fitness for binding parS DNA | item: RHNH
## Output ≤ 0.2
